- STUDY_TARGET: human CCR5 (Homo sapiens, UniProt P51681)
- Construct: expressed in transfected cells; whole cells in the well
- Sequence (P51681 whole entry): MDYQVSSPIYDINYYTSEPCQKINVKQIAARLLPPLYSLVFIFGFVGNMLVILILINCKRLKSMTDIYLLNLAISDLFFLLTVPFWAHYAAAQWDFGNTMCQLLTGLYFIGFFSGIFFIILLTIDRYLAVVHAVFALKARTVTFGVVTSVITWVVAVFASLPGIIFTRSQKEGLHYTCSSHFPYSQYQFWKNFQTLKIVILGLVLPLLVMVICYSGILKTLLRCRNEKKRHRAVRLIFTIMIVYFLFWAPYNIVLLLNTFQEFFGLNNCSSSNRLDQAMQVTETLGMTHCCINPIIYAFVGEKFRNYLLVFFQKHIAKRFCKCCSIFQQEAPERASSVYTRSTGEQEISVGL
- PROTOCOL_DESCRIPTION: CCR5 binding assay: inhibition of [125I]-RANTES binding to CHO/CCR5 cells
- MEASUREMENT_SETUP: 1.0 μM test compound, 100 pM [125I]-RANTES, room temperature 40 minutes, read-out: Inhibition Rate (%) at 1.0 μM
Structures can show the parent of a compound that is named as a salt.
Entries and their inhibition at 1 µM values follow.
Reply numerically in %, unit not repeated.

**Query** May I ask what inhibition at 1 µM has been recorded for CS(=O)(=O)N1CCC(C(=O)N(CCCN2CCC(Cc3ccc(S(=O)(=O)N4CCOCC4)cc3)CC2)c2ccc(Cl)c(Cl)c2)CC1 [Example 356] ?
**Result** 100

**Query** Try CC(=O)N1CCC(C(=O)N(CCCN2CCN(Cc3ccc4c(c3)OCO4)CC2)c2cccc(Cl)c2)CC1 [Example 57, Trifluoroacetate] next.
**Result** 96

**Query** Item: Cc1ccc(N(CCCN2CCC(Cc3ccc(C(N)=O)cc3)CC2)C(=O)C2CCN(S(C)(=O)=O)CC2)cc1Cl [Example 470]
**Result** 99

**Query** Then what about the compound CC(=O)N1CCC(C(=O)N(CCCN2CCC(Sc3cnccn3)CC2)c2cccc(Cl)c2)CC1 [Example 79, Trifluoroacetate] ?
**Result** 90

**Query** Now the same for CS(=O)(=O)N1CCC(C(=O)N(CCCN2CCC(Cc3ccc(-n4cnnn4)cc3)CC2)c2ccc(Cl)c(Cl)c2)CC1 [Example 309]
**Result** 92
